- assay-name: PSAC antagonists in infected red cells, primary screen, cell-based, P. falciparum Indochina, OD700, 2 h (AID 1155);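 note: lysis reports solute entry through the parasite surface anion channel PSAC; channel blockers reduce lysis of infected cells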
- condition-details: P. falciparum Indochina infected erythrocytes, osmotic lysis OD700; higher = more signal, called active from +8 up or from −8 down
z-score below 0.9 gives not fulfilled; z-score at or above it gives fulfilled.

Does z-score meet or surpass 0.9 for COc1ccc([Si](C)(C)[C@H]2[C@H](CCO)O[C@@]3(C(=O)N(Cc4cccc(N5CCCCC5=O)c4)c4ccccc43)[C@@H]2C)cc1 ? fulfilled

hey, is z-score for this one >= 0.9? CCOC(=O)C[C@H]1[C@H](OC(=O)c2ccccc2-c2ccccc2)[C@@H](NC(=O)CC(C)C)c2cc(OCCCO)ccc2N1C(=O)c1ccc2ccccc2n1 fulfilled

Determine whether measured z-score meets or exceeds 0.9 for Cc1ccc(C(C)CC(O)C2C=CC3C(=O)N(c4ccccc4)C(=O)C3N2Nc2ccc(C(C)C)cc2)o1 (stereo not given) not fulfilled

Decide: z-score of O=C1OC[C@@H](c2ccccc2)N2CC(/C=C/c3ccccc3)=CC12 (stereo not given in full) >= 0.9? fulfilled

Does z-score meet or surpass 0.9 for CO[C@H]1O[C@H](CO)[C@@H](OC(=O)c2ccc(Br)cc2)[C@@H]2OC(=O)[C@@H](Cc3ccc4ccccc4c3)C/C=C/C[C@H](Cc3ccc4ccccc4c3)C(=O)O[C@@H]12 ? not fulfilled

Decide: z-score of [N-]=[N+]=NCc1ccccc1C[C@@]1(C(=O)N2CCCCC2)N=C(c2ccc(OCCCO)cc2)O[C@@H]1c1ccccc1N=[N+]=[N-] >= 0.9? fulfilled

Identify whether the reported z-score of the following molecule is 0.9 or greater: Cc1ccc(S[C@]2(C(=O)NCc3ccccc3)CC(=O)N(C(C)C)[C@@H]2c2ccc(CO)cc2I)cc1 fulfilled

Hi, just wondering whether CCCCN1CC=CC23O[C@@H]4/C=C\CCC(C)OC(=O)C4[C@H]2C(=O)N(CCCCCCO)[C@@H]3C1=O (stereo not given in full) shows z-score of 0.9 or higher. not fulfilled

Is it the case that CCCC[C@@H]1C[C@H]1[C@@H](NC(=O)c1cccnc1)c1ccc(-c2ccccc2)cc1 has z-score reaching or exceeding 0.9? not fulfilled

Reported z-score at or above 0.9? COc1ccc(C(O)C2C=CC3C(=O)N(c4ccccc4)C(=O)C3N2Nc2ccc(C#N)cc2)c2ccccc12 (stereo not given) fulfilled

Quick check, z-score >= 0.9? O=C(CS)NCCCCCCNC(=O)[C@@H]1C[C@@H]2C(=O)N3CCC[C@H]3C(=O)N2[C@@H]1c1cccc(OCCO)c1 not fulfilled

Is the recorded value of z-score equal to or greater than 0.9 for this molecule? CC(=O)N1Cc2ccccc2C[C@]2(N=C(c3ccc(OCCCO)cc3)O[C@@H]2c2ccccc2)C1=O fulfilled

Identify whether the reported z-score of the following molecule is 0.9 or greater: C[C@H]1ON(c2ccc(C(=O)OC(C)(C)C)cc2)[C@@H](c2ccc(O)cc2)[C@@H]1C(=O)N1C(=O)OC[C@@H]1c1ccccc1 not fulfilled

Item CC(=O)NCCCC[C@@H]1NC(=O)[C@@H]2C[C@H](C(=O)O)[C@H](c3ccc(O)cc3)N2C1=O with z-score of 0.9 or above? not fulfilled

Reported z-score at or above 0.9? C=CCOC(=O)[C@H]1[C@@H]2C(=O)O[C@@H](c3ccccc3)[C@@H](c3ccccc3)N2[C@@H](c2ccc(OCCOC(=O)[C@H]3C[C@H]4C(=O)N[C@@H](CCCC[N+](C)(C)C)C(=O)N4[C@H]3c3cccc(OCCO)c3)cc2)[C@]12C(=O)Nc1ccc(I)cc12 fulfilled

Quick check, z-score >= 0.9? CC(C)(C)OC(=O)CC[C@]1(C(=O)NCCN2CCOCC2)N=C(c2ccc(OCCCO)cc2)O[C@H]1c1ccccc1N=[N+]=[N-] fulfilled

Record C=CC[C@@H](OC(=O)Nc1ccc(OC)cc1)c1ccc(OCCO)cc1 ; criterion: z-score no lower than 0.9. Met? fulfilled

Does the reported z-score for CC(C)C(=C=CC[C@H](O)c1ccc(OCCO)cc1)C[C@H](O)c1cc(Cl)cc(Cl)c1O fall at or above the 0.9 mark? fulfilled

Kindly determine if z-score recorded for C=C[C@@H](C)[C@H](OC(=O)Nc1ccc(SC)cc1)c1ccc(OCCO)cc1 is above or exactly 0.9. fulfilled

Reported z-score at or above 0.9? COc1ccc([Si](C)(C)[C@@H]2[C@@H](CCO)O[C@]3(C(=O)N(Cc4cccc(N5C(=O)c6cccc7cccc5c67)c4)c4ccccc43)[C@H]2C)cc1 fulfilled

Determine whether this molecule has z-score no lower than 0.9: CCOC(=CC(=O)OC)CC(O)c1cccc(Cl)c1 (stereo not given) not fulfilled

Evaluate CC(C)CN1C(=O)[C@@]2(Cc3ccccc31)c1ccccc1C(=O)N(Cc1ccccc1C(F)(F)F)[C@H]2c1ccc(CO)cc1 : z-score at minimum 0.9? not fulfilled

In plain terms: is recorded z-score at least 0.9 for COc1cc2c(cc1O)C(C)N(Cc1cc3c(cc1Br)OCO3)CC2 (stereo not given) ? not fulfilled

Does the molecule C=C(/C(=C/C[C@@H](OC(=O)c1ccncc1)c1ccc(OCCO)cc1)c1cc(C(=O)OC)ccc1OC)C(C)C have recorded z-score that is 0.9 or more? fulfilled

Answer whether z-score of COC(=O)[C@@]1(Cc2ccc(OC)cc2)[C@H]2c3cc(C(=O)N(C)C)n(Cc4ccccc4)c3C[C@H]2CN1C(=O)c1ccccc1 is greater than or equal to 0.9. not fulfilled

# check: z-score of O=C(O)[C@H]1C[C@H]2C(=O)N3CCC[C@H]3C(=O)N2[C@H]1c1cccc(OCCO)c1 is greater than or equal to 0.9 fulfilled

Would you say COCCCNC(=O)[C@]1(Cc2ccccc2CN=[N+]=[N-])N=C(c2ccc(OCCCO)cc2)O[C@@H]1c1ccccc1 shows z-score at minimum 0.9? fulfilled

Reported z-score reaches at least 0.9 for COCC(=C=CC[C@H](O)c1ccc(OCCO)cc1)C[C@H](O)COCc1ccccc1 ? fulfilled

Is reported z-score greater than or equal to 0.9 here: COCCCNC(=O)[C@]1(Cc2ccccc2N=[N+]=[N-])N=C(c2ccc(OCCCO)cc2)O[C@@H]1c1ccccc1N=[N+]=[N-] fulfilled

----------
I'd be grateful if you could share measured composite z-score for these entries.
- assay-name: small-molecule binders of probe aNOTCH2, primary screen, biochemical, small-molecule microarray, 635/667 nm fluorescence (AID 1121);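 note: score merges feature fluorescence read at 667 nm with its signal to noise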
- condition-details: higher = more signal
Enter a number only.

Provide only the value of recorded composite z-score for CO[C@H]1O[C@H](CO)[C@@H](OC(=O)Nc2ccc(Oc3ccccc3)cc2)[C@H](OC(=O)Nc2ccccc2-c2ccccc2)[C@@H]1OC(=O)Nc1ccccc1-c1ccccc1 0.247

Tell us which composite z-score value is on record for COCCOC(=O)N1C(=O)[C@@]2(c3ccccc31)[C@H](C(=O)N1CCN(c3ncccn3)CC1)[C@H]1C(=O)O[C@H](c3ccccc3)[C@H](c3ccccc3)N1[C@@H]2c1ccc(OCCO)cc1 -0.0029

Specify composite z-score for CC(C)(C)OC(=O)CC[C@]1(C(=O)N2CCOCC2)N=C(c2ccc(OCCCO)cc2)O[C@H]1c1ccccc1 and stop. -0.17

# return recorded composite z-score for entry O=C1C[C@@](C(=O)NCC(F)(F)F)(c2ccc([N+](=O)[O-])cc2)[C@@H](c2ccc(CO)cc2)N1C1CCCCC1 0.0257

----------
Would you kindly list composite z-score for each of these compounds?
- measurement-target: Neurogenic locus notch homolog protein 3 (Homo sapiens) (UniProt Q9UM47)
- Sequence (Q9UM47 whole entry, looked up): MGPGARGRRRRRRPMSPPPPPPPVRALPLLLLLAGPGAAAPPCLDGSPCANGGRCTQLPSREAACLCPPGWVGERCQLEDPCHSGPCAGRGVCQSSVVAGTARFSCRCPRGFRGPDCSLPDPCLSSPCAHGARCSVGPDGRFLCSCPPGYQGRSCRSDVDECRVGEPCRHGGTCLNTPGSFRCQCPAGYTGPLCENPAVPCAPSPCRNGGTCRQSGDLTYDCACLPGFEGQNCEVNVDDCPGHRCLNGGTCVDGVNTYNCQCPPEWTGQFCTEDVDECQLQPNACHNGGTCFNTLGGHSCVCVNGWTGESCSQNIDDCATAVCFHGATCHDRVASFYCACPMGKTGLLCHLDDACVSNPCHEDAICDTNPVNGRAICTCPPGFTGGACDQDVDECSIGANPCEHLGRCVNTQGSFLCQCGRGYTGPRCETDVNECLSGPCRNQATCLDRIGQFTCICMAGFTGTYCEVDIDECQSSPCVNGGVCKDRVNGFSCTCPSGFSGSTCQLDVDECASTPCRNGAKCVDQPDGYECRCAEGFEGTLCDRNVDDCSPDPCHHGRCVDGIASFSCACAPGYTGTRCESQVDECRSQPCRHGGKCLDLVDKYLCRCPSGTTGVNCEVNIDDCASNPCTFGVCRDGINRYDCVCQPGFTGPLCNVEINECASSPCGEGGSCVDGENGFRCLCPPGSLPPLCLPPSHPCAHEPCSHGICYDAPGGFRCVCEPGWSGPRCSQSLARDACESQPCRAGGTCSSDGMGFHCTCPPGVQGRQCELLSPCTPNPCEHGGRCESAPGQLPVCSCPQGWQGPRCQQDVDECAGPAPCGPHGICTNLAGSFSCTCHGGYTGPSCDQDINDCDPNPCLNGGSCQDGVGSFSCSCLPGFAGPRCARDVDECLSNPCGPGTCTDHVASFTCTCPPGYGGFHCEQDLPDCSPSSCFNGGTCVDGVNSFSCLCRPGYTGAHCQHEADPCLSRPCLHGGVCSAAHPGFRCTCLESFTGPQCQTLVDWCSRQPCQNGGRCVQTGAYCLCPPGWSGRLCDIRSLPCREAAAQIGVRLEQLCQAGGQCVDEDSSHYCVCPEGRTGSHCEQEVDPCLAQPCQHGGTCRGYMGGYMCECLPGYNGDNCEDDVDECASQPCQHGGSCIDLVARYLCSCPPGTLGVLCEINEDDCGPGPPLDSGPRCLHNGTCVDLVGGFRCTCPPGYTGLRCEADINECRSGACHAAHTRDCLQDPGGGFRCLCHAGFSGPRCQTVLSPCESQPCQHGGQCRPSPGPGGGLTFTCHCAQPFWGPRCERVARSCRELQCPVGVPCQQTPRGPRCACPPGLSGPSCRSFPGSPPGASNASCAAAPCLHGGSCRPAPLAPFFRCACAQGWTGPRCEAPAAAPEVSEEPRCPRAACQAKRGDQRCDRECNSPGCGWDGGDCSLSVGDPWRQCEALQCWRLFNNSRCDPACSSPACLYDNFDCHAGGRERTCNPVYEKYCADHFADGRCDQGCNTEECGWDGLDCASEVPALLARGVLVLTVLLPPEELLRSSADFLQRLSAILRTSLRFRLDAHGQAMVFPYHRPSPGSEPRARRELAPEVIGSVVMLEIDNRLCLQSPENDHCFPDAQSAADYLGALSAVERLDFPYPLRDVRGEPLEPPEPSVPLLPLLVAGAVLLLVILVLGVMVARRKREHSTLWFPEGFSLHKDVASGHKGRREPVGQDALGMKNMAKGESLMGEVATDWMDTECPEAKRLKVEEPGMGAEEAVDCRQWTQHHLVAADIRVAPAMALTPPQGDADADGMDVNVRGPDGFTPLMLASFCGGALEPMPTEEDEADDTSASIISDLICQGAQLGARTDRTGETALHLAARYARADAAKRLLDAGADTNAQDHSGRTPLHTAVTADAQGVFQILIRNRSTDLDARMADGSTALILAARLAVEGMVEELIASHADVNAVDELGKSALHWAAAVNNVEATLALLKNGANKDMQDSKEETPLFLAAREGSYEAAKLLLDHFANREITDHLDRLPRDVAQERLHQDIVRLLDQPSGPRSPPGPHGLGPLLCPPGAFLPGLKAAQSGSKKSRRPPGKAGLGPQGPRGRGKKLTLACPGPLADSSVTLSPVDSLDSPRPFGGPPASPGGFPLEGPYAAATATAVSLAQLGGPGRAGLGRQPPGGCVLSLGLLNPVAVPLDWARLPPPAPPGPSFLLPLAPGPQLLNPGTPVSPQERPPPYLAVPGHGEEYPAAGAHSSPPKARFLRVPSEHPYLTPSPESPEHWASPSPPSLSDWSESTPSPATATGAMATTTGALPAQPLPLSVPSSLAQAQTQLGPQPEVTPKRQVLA
- assay-name: NOTCH3 binders on small-molecule microarray, primary screen, biochemical, 635/667 nm fluorescence (AID 1096)
- condition-details: NOTCH3 binding, 635 nm fluorescence, higher = more signal
Enter a number only.

Read off the recorded composite z-score for COCCOC(=O)N1C(=O)[C@@]2(c3cc(C#CC4=CCCCC4)ccc31)[C@H](c1ccccc1OCCO)N1[C@H](c3ccccc3)[C@H](c3ccccc3)OC(=O)[C@H]1[C@@H]2C(=O)N1CCc2cc(OC)c(OC)cc2C1 1.08

Hello, please tell me recorded composite z-score for this one: CC(C)C(=C=CC[C@H](O)c1ccc(OCCO)cc1)C[C@H](O)c1cc(Cl)cc(Cl)c1O 1.04

Let me know recorded composite z-score for COC(=O)[C@@]1(Cc2ccc(F)cc2)[C@H]2c3cc(C(=O)N4CCCC4)n(CCc4c[nH]c5ccc(OC)cc45)c3C[C@H]2CN1C(=O)c1ccccc1 , thanks. 1.11

Name the recorded composite z-score of the compound listed here: [N-]=[N+]=NCc1ccccc1[C@H]1OC(c2ccc(OCCCO)cc2)=N[C@@]1(CCS(=O)(=O)c1ccccc1)C(N)=O 0.861

Provide measured composite z-score value, entry: COc1ccc(C(O)C2C=CC3C(=O)N(c4ccccc4)C(=O)C3N2Nc2ccccc2)cc1OCc1ccccc1 (stereo not given) 1.03

Specify measured composite z-score for CC(C)C(CO)N1C(=O)[C@]2(C)C3C(=O)OCCC/C=C\[C@H]3OC23C=CCN(c2ccc(Cl)cc2)C(=O)[C@@H]13 (stereo not given in full) . 0.0253

State its composite z-score: C[N+](C)(C)CCCC[C@@H]1NC(=O)[C@@H]2C[C@H](C(=O)O)[C@H](c3ccc(O)cc3)N2C1=O -0.694

Please list composite z-score recorded for the compound CCOC(=O)C1=C[C@@H](c2ccccc2)N(S(=O)(=O)c2ccc(C)cc2)[C@H]1c1cccc(Cl)c1 1.07

State, in one line, measured composite z-score of O=C(O)[C@]1(Cc2ccccc2)N=C(c2ccc(OCCCO)cc2)O[C@@H]1c1ccccc1 -0.786

Quickly give me recorded composite z-score for COCCCNC(=O)[C@@]1(Sc2ccc(C)cc2)CC(=O)N(C2Cc3ccccc3C2)[C@@H]1c1ccc(CO)cc1I -1.16

For the compound CCCCN1CC=CC23O[C@@H]4/C=C\CCC(C)OC(=O)C4[C@H]2C(=O)N(CCCCCCO)[C@@H]3C1=O (stereo not given in full) , report composite z-score. -0.407

Using the record for CC(C)(C)OC(=O)CC[C@]1(C(=O)NCCN2CCOCC2)N=C(c2ccc(OCCCO)cc2)O[C@H]1c1ccccc1N=[N+]=[N-] , state its measured composite z-score. 0.412

Look up and state reported composite z-score for CC(C)C(O)C1C=CC2C(=O)N(C)C(=O)C2N1N(c1ccccc1)c1ccccc1 (stereo not given) -0.853

Answer with the recorded composite z-score of CC=CC(O)C1C=CC2C(=O)N(c3ccccc3)C(=O)C2N1Nc1ccc([N+](=O)[O-])cc1 (stereo not given) only. 0.512

Provide measured composite z-score value, entry: COCCOC(=O)N1C(=O)[C@@]2(c3cc(C#CC4(O)CCCCCC4)ccc31)[C@H](C(N)=O)[C@H]1C(=O)O[C@H](c3ccccc3)[C@H](c3ccccc3)N1[C@@H]2c1ccc(O)cc1 1.12
